Numbers sourced from patent US10760110B2.

# System: K. pneumoniae NVT1001 strains with aminoglycoside resistance plasmids
# ASSAY PROCEDURE: Etest MIC of aminoglycosides, aminoglycoside-modifying enzyme or 16S rRNA methylase (Table 13)
# Assay type: cell-based, Klebsiella pneumoniae
# PROTOCOL CONDITIONS: NVT1001 with StrA-StrB on pACYC184
Assignment: determine reported MIC for the given compounds.
Give bare numbers, in µg/mL.

Count: 5. Required value per item: MIC.
1. NC[C@H]1O[C@H](O[C@H]2[C@H](O)[C@@H](O[C@H]3O[C@H](CO)[C@@H](O)[C@H](N)[C@H]3O)[C@H](N)C[C@@H]2N)[C@H](N)C[C@@H]1O
2. CCN[C@@H]1C[C@H](N)[C@@H](O[C@H]2OC(CN)=CC[C@H]2N)[C@H](O)[C@H]1O[C@H]1OC[C@](C)(O)[C@H](NC)[C@H]1O
3. NCC[C@H](O)C(=O)N[C@@H]1C[C@H](N)[C@@H](O[C@H]2O[C@H](CN)[C@@H](O)[C@H](O)[C@H]2O)[C@H](O)[C@H]1O[C@H]1O[C@H](CO)[C@@H](O)[C@H](N)[C@H]1O
4. CN[C@@H]1[C@H](O[C@H]2[C@H](O[C@H]3[C@H](O)[C@@H](O)[C@H](N=C(N)N)[C@@H](O)[C@@H]3N=C(N)N)O[C@@H](C)[C@]2(O)C=O)O[C@@H](CO)[C@H](O)[C@H]1O
5. NC[C@@H]1O[C@@H](O[C@H]2[C@H](O)[C@@H](O[C@H]3O[C@H](CO)[C@@H](O)[C@H](N)[C@H]3O)[C@H](N)C[C@@H]2N)[C@@H](O)[C@H](O)[C@H]1O

a:
0.5
0.5
2
1024
2

According to the records, this compound "CN[C@@H]1[C@H](O)[C@H](NC)[C@H]2O[C@@]3(O)C(=O)C[C@@H](C)O[C@H]3O[C@@H]2[C@H]1O" displays MIC of 16
